Cited source for all entries: patent US20240182536A1

Target: T1, human IL-18 binding protein (IL-18BP) (human, UniProt O95998 31-194)
T1 construct: also called hu IL-18BP; hIL18BP
T1 sequence (looked up): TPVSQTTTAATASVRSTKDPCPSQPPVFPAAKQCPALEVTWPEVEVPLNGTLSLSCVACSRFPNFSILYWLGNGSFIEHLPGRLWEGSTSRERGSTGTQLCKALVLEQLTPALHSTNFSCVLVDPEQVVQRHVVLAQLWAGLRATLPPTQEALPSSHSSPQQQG
Assay: Octet BLI
Recorded kon, one value per entry.
Number plus unit, in that order.

For reference, reported kon for IL-18 variant G3S, K53S (ligand) YFSKLESKLSVIRNLNDQVLFIDQGNRPLFEDMTDSDMRDNAPRTIFIISMYSDSQPRGMAVTISVKSEKISTLSSENKIISFKEMNPPDNIKDTKSDIIFFQRSVPGHDNKMQFESSSYEGYFLASEKERDLFKLILKKEDELGDRSIMFTVQNED stands at 283000 M⁻¹ s⁻¹

For reference, reported kon for IL-18 variant G3F, K53S (ligand) YFFKLESKLSVIRNLNDQVLFIDQGNRPLFEDMTDSDMRDNAPRTIFIISMYSDSQPRGMAVTISVKSEKISTLSSENKIISFKEMNPPDNIKDTKSDIIFFQRSVPGHDNKMQFESSSYEGYFLASEKERDLFKLILKKEDELGDRSIMFTVQNED stands at 408000 M⁻¹ s⁻¹

For reference, reported kon for IL-18 variant G3A, K53S (ligand) YFAKLESKLSVIRNLNDQVLFIDQGNRPLFEDMTDSDMRDNAPRTIFIISMYSDSQPRGMAVTISVKSEKISTLSSENKIISFKEMNPPDNIKDTKSDIIFFQRSVPGHDNKMQFESSSYEGYFLASEKERDLFKLILKKEDELGDRSIMFTVQNED stands at 245000 M⁻¹ s⁻¹

For reference, reported kon for IL-18 variant G3R, N91A, K53S (ligand, also called G3R/K53S/N91A) YFRKLESKLSVIRNLNDQVLFIDQGNRPLFEDMTDSDMRDNAPRTIFIISMYSDSQPRGMAVTISVKSEKISTLSSENKIISFKEMNPPDAIKDTKSDIIFFQRSVPGHDNKMQFESSSYEGYFLASEKERDLFKLILKKEDELGDRSIMFTVQNED stands at 213000 M⁻¹ s⁻¹

For reference, reported kon for IL-18 variant G3R, N91M, K53S (ligand, also called G3R/K53S/N91M) YFRKLESKLSVIRNLNDQVLFIDQGNRPLFEDMTDSDMRDNAPRTIFIISMYSDSQPRGMAVTISVKSEKISTLSSENKIISFKEMNPPDMIKDTKSDIIFFQRSVPGHDNKMQFESSSYEGYFLASEKERDLFKLILKKEDELGDRSIMFTVQNED stands at 223000 M⁻¹ s⁻¹

For reference, reported kon for IL-18 variant G3A, N91L, K53S (ligand) YFAKLESKLSVIRNLNDQVLFIDQGNRPLFEDMTDSDMRDNAPRTIFIISMYSDSQPRGMAVTISVKSEKISTLSSENKIISFKEMNPPDLIKDTKSDIIFFQRSVPGHDNKMQFESSSYEGYFLASEKERDLFKLILKKEDELGDRSIMFTVQNED stands at 216000 M⁻¹ s⁻¹

For reference, reported kon for IL-18 variant G3T, K53S (ligand) YFTKLESKLSVIRNLNDQVLFIDQGNRPLFEDMTDSDMRDNAPRTIFIISMYSDSQPRGMAVTISVKSEKISTLSSENKIISFKEMNPPDNIKDTKSDIIFFQRSVPGHDNKMQFESSSYEGYFLASEKERDLFKLILKKEDELGDRSIMFTVQNED stands at 263000 M⁻¹ s⁻¹

For reference, reported kon for IL-18 variant G3H, N91V, K53S (ligand, also called G3H/K53S/N91V) YFHKLESKLSVIRNLNDQVLFIDQGNRPLFEDMTDSDMRDNAPRTIFIISMYSDSQPRGMAVTISVKSEKISTLSSENKIISFKEMNPPDVIKDTKSDIIFFQRSVPGHDNKMQFESSSYEGYFLASEKERDLFKLILKKEDELGDRSIMFTVQNED stands at 359000 M⁻¹ s⁻¹

For reference, reported kon for IL-18 variant G3R, K53S (ligand) YFRKLESKLSVIRNLNDQVLFIDQGNRPLFEDMTDSDMRDNAPRTIFIISMYSDSQPRGMAVTISVKSEKISTLSSENKIISFKEMNPPDNIKDTKSDIIFFQRSVPGHDNKMQFESSSYEGYFLASEKERDLFKLILKKEDELGDRSIMFTVQNED stands at 356000 M⁻¹ s⁻¹

For reference, reported kon for IL-18 variant G3K, N91I, K53S (ligand) YFKKLESKLSVIRNLNDQVLFIDQGNRPLFEDMTDSDMRDNAPRTIFIISMYSDSQPRGMAVTISVKSEKISTLSSENKIISFKEMNPPDIIKDTKSDIIFFQRSVPGHDNKMQFESSSYEGYFLASEKERDLFKLILKKEDELGDRSIMFTVQNED stands at 218000 M⁻¹ s⁻¹

# input for lookup
For reference, reported kon for IL-18 variant G3R, N91W, K53A (ligand, also called G3R/K53A/N91W) YFRKLESKLSVIRNLNDQVLFIDQGNRPLFEDMTDSDMRDNAPRTIFIISMYADSQPRGMAVTISVKSEKISTLSSENKIISFKEMNPPDWIKDTKSDIIFFQRSVPGHDNKMQFESSSYEGYFLASEKERDLFKLILKKEDELGDRSIMFTVQNED stands at 185000 M⁻¹ s⁻¹
